# SYSTEM NAME: hGLP1R (Homo sapiens)
# Construct: expressed in transfected cells; host or cells: HEK-293 cells carrying a CRE-luciferase reporter gene
# Sequence (P43220 24-463): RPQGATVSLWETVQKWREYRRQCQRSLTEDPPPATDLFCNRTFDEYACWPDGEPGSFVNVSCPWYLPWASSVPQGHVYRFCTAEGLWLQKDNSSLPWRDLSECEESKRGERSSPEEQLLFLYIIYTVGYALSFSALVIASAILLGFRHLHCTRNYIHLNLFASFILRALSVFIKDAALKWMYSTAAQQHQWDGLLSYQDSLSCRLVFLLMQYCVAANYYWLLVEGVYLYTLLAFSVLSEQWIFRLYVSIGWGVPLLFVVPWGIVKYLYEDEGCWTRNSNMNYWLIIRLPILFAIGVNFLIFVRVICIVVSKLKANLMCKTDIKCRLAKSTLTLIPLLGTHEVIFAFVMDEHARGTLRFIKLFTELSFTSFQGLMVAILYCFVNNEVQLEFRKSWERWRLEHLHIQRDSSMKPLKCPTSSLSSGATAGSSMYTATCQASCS
# MEASUREMENT DESCRIPTION: hGLP1R CreLuc reporter gene assay in 0.5% and 100% plasma
# Assay type: cell-based
# SETUP CONDITIONS: CreLuc reporter gene assay, 0.5% human plasma; read-out: hGLP1R 0.5% hP
Starred links: 1 amine or outer side, 2 acyl side, 3 side chain; linkers in the order of their positions; H or OH if unused. Non-standard residues stand in square brackets, D forms with d. Groups on a side chain read outwards from the residue. *: point of attachment. C20 diacid = O=C(O)CCCCCCCCCCCCCCCCCCC(=O)*; C18 diacid = O=C(O)CCCCCCCCCCCCCCCCC(=O)*; γGlu = O=C(O)[C@H](CCC(=O)[*:2])N[*:1]; εLys = N[C@@H](CCCCN[*:1])C(=O)[*:2]; AEEA = NCCOCCOCC(=O)O; Aib = CC(C)(N)C(=O)O

SUBSTANCE | EC50, nM
H-Y[Aib]EGTFTSDYSI[Aib]LEKQAE[Aib]AFVQWLIK([εLys-γGlu-γGlu-γGlu-γGlu-C18 diacid])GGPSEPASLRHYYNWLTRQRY-NH2 [Compound 54] | 0.22
H-Y[Aib]EGTFTSDYSI[Aib]LEKQAQ[Aib]EFVEWLIK([AEEA-AEEA-γGlu-C18 diacid])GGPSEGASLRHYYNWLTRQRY-NH2 [Compound 282] | 0.51
H-Y[Aib]EGTFTSDYSI[Aib]LEKQAQ[Aib]AFVEWLIK([AEEA-AEEA-γGlu-γGlu-γGlu-γGlu-γGlu-C20 diacid])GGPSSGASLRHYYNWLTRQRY-NH2 [Compound 229] | 0.1
H-Y[Aib]EGTFTSDYSI[Aib]LEEQAQ[Aib]AFVEWLIK([εLys-γGlu-γGlu-γGlu-γGlu-γGlu-γGlu-C20 diacid])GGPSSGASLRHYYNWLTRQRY-NH2 [Compound 116] | 0.14
H-Y[Aib]EGTFTSDYSI[Aib]LEKQAQ[Aib]AFVQWLIK([AEEA-AEEA-γGlu-γGlu-γGlu-γGlu-C18 diacid])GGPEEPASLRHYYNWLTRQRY-NH2 [Compound 57] | 0.14
H-Y[Aib]EGTFTSDYSI[Aib]LEKQAQ[Aib]EFVQWLIK([AEEA-AEEA-γGlu-γGlu-γGlu-γGlu-γGlu-C20 diacid])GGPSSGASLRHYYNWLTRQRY-NH2 [Compound 36] | 0.28
H-Y[Aib]EGTFTSDYSI[Aib]LEKQAQ[Aib]AFIEWLIK([γGlu-γGlu-γGlu-γGlu-C18 diacid])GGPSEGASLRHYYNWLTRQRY-NH2 [Compound 247] | 0.11
H-Y[Aib]EGTFTSDYSI[Aib]LEKQAQ[Aib]AFVEWLIK([εLys-γGlu-γGlu-γGlu-γGlu-γGlu-γGlu-C20 diacid])GGPSYYVSLRHYYNWLTRQRY-NH2 [Compound 80] | 1.6
H-Y[Aib]EGTFTSDYSI[Aib]LEKQAQ[Aib]AFVEWLIK([εLys-γGlu-γGlu-γGlu-γGlu-γGlu-γGlu-C20 diacid])GGPSSGQS[Aib]RHYYNWLTRQRY-NH2 [Compound 44] | 0.07
H-Y[Aib]EGTFTSDYSI[Aib]LEKQAE[Aib]AFVQWLIK([εLys-γGlu-γGlu-γGlu-γGlu-γGlu-C18 diacid])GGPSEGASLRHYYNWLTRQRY-NH2 [Compound 138] | 0.19
H-Y[Aib]EGTFTSDYSI[Aib]LEKQAQ[Aib]AFVQWLIK([AEEA-AEEA-γGlu-γGlu-γGlu-γGlu-C18 diacid])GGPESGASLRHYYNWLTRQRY-NH2 [Compound 58] | 0.05
